Molecular target: UCP1 (Homo sapiens, UniProt P25874)
Construct: His8 (N, cleaved yes); Factor Xa protease cleavage site (N, cleaved yes); made in house; host or cells: Saccharomyces cerevisiae strain W303.1B
Assay: Isothermal titration calorimetry of nucleotide binding
Parameters: unit not given here
Settings: Molar ratio (Nucleotide/UCP) 0.304059; representative isotherm, pH 6.0, 20 °C
Readout name: isotherm data point (enthalpy change per injection)
Give bare numbers.

Recorded isotherm data point (enthalpy change per injection), per entry:
[
  {
    "Molecule": "O=c1ccn([C@@H]2O[C@H](CO[P@@](=O)(O)O[P@@](=O)(O)OP(=O)(O)O)[C@@H](O)[C@H]2O)c(=O)[nH]1 (stereo in doubt) [UTP, uridine triphosphate]",
    "Measured result": -20.9646
  },
  {
    "Molecule": "Cc1cn([C@H]2C[C@H](O)[C@@H](COP(=O)(O)OP(=O)(O)OP(=O)(O)O)O2)c(=O)[nH]c1=O [dTTP, thymidine triphosphate]",
    "Measured result": -20.8684
  }
]

Each of the following entries comes with a recorded value; kindly state isotherm data point (enthalpy change per injection) for each.
1. Nc1nc2c(ncn2[C@@H]2O[C@H](COP(=O)(O)OP(=O)(O)OP(=O)(O)O)[C@@H](O)[C@H]2O)c(=O)[nH]1 [GTP, guanosine triphosphate]
2. Nc1ccn(C2OC(COP(=O)(O)OP(=O)(O)OP(=O)(O)O)C(O)C2O)c(=O)n1 (stereo not shown) [CTP]

**A:**
[-18.707, -20.0539]

* * *

Biological target: UCP1 (Homo sapiens)
Construct: His8 (N, cleaved yes); Factor Xa protease cleavage site (N, cleaved yes); made in house; host or cells: Saccharomyces cerevisiae strain W303.1B
Sequence (P25874 1-307): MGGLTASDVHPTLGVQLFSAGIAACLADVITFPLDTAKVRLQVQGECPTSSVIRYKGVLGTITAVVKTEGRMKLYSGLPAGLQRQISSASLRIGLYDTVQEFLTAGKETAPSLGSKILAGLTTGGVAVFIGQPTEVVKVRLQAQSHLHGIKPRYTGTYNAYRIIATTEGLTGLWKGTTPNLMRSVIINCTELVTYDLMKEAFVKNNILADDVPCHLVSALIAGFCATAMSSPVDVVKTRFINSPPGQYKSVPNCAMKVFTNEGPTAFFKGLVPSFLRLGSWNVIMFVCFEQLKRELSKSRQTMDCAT
Assay: Isothermal titration calorimetry of nucleotide binding
Parameters: unit not given here
Conditions: Molar ratio (Nucleotide/UCP) 1.34751; representative isotherm, pH 6.0, 20 °C
I'd be grateful if you could share measured isotherm data point (enthalpy change per injection) for these entries.

[
  {
    "Molecule": "O=c1ccn([C@@H]2O[C@H](CO[P@@](=O)(O)O[P@@](=O)(O)OP(=O)(O)O)[C@@H](O)[C@H]2O)c(=O)[nH]1 (stereo in doubt) [UTP, uridine triphosphate]",
    "Measured result": -1.408
  },
  {
    "Molecule": "Nc1ccn(C2OC(COP(=O)(O)OP(=O)(O)OP(=O)(O)O)C(O)C2O)c(=O)n1 (stereo not shown) [CTP]",
    "Measured result": -2.027
  },
  {
    "Molecule": "Cc1cn([C@H]2C[C@H](O)[C@@H](COP(=O)(O)OP(=O)(O)OP(=O)(O)O)O2)c(=O)[nH]c1=O [dTTP, thymidine triphosphate]",
    "Measured result": -0.7829
  }
]

// moving on: another record for isotherm data point (enthalpy change per injection)
**Q:** // query isotherm data point (enthalpy change per injection) value for entry Nc1nc2c(ncn2[C@@H]2O[C@H](COP(=O)(O)OP(=O)(O)OP(=O)(O)O)[C@@H](O)[C@H]2O)c(=O)[nH]1 [GTP, guanosine triphosphate]
**A:** -2.606

* * *

Molecular target: UCP1 (Homo sapiens, UniProt P25874)
Construct: His8 (N, cleaved yes); Factor Xa protease cleavage site (N, cleaved yes); made in house; host or cells: Saccharomyces cerevisiae strain W303.1B
Sequence (P25874 1-307): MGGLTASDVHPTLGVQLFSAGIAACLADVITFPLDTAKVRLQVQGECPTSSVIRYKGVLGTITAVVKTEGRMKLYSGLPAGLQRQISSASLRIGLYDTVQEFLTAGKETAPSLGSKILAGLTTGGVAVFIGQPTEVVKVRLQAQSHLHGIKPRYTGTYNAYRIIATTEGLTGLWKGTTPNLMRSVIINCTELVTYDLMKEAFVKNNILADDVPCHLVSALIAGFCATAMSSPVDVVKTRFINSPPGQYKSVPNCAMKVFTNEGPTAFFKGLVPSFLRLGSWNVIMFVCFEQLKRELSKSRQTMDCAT
Assay: Isothermal titration calorimetry of nucleotide binding;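 further: purified human UCP1 in cacodylate buffer with lauryl maltose neopentyl glycol and cardiolipin, titrated with nucleotides, isotherms fitted by one-site model yielding ΔH, Kd and stoichiometry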
Parameters: unit not given here
Settings: Molar ratio (Nucleotide/UCP) 0.618348; representative isotherm, pH 6.0, 20 °C
Rule: measured isotherm data point (enthalpy change per injection) below -20 gets met; anything equal to or greater than -20 gets not met.

Here's what some known entries look like.
[
  {
    "Compound": "Nc1ccn(C2OC(COP(=O)(O)OP(=O)(O)OP(=O)(O)O)C(O)C2O)c(=O)n1 (centres unmarked) [CTP]",
    "Subject of test": "UCP1 (Homo sapiens, UniProt P25874)",
    "Assigned category": "not met"
  },
  {
    "Compound": "Nc1nc2c(ncn2[C@@H]2O[C@H](COP(=O)(O)OP(=O)(O)OP(=O)(O)O)[C@@H](O)[C@H]2O)c(=O)[nH]1 [GTP, guanosine triphosphate]",
    "Subject of test": "UCP1 (Homo sapiens, UniProt P25874)",
    "Assigned category": "not met"
  }
]

**Q:** Lab log: compare recorded isotherm data point (enthalpy change per injection) with -20; is it strictly lower for Nc1ncnc2c1ncn2[C@@H]1O[C@H](COP(=O)(O)OP(=O)(O)OP(=O)(O)O)[C@@H](O)[C@H]1O [ATP, adenosine triphosphate] ?
**A:** met

**Q:** Lab log: compare recorded isotherm data point (enthalpy change per injection) with -20; is it strictly lower for Cc1cn([C@H]2C[C@H](O)[C@@H](COP(=O)(O)OP(=O)(O)OP(=O)(O)O)O2)c(=O)[nH]c1=O [dTTP, thymidine triphosphate] ?
**A:** not met

**Q:** Lab log: compare recorded isotherm data point (enthalpy change per injection) with -20; is it strictly lower for O=c1ccn([C@@H]2O[C@H](CO[P@@](=O)(O)O[P@@](=O)(O)OP(=O)(O)O)[C@@H](O)[C@H]2O)c(=O)[nH]1 (stereo in doubt) [UTP, uridine triphosphate] ?
**A:** not met

* * *

Biological target: UCP1 (Homo sapiens, UniProt P25874)
Construct: His8 (N, cleaved yes); Factor Xa protease cleavage site (N, cleaved yes); made in house; host or cells: Saccharomyces cerevisiae strain W303.1B
Sequence (P25874 1-307): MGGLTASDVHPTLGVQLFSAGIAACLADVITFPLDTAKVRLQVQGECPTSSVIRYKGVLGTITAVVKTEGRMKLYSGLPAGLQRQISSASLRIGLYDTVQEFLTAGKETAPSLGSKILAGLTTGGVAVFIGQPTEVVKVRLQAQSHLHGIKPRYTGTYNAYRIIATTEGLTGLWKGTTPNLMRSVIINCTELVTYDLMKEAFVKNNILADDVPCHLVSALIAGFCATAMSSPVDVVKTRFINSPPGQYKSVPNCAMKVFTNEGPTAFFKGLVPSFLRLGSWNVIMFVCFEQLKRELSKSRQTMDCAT
Experiment: Differential scanning fluorimetry (nanoDSF) thermal stability shift assay
Type: binding
Conditions: 1 mM nucleotide, pH 6.0, detergent-solubilised UCP1, mean of three biological repeats
Readout name: temperature shift (ΔTm)
Write your answer as a measured quantity: the number, then the unit.

Recorded temperature shift (ΔTm), per entry:
[
  {
    "Molecule": "Nc1nc2c(ncn2[C@@H]2O[C@H](COP(=O)(O)OP(=O)(O)OP(=O)(O)O)[C@@H](O)[C@H]2O)c(=O)[nH]1 [GTP, guanosine triphosphate]",
    "temperature shift (ΔTm)": "16.2 °C"
  },
  {
    "Molecule": "Nc1ccn(C2OC(COP(=O)(O)OP(=O)(O)OP(=O)(O)O)C(O)C2O)c(=O)n1 (stereo not shown) [CTP]",
    "temperature shift (ΔTm)": "12.5 °C"
  },
  {
    "Molecule": "Cc1cn([C@H]2C[C@H](O)[C@@H](COP(=O)(O)OP(=O)(O)OP(=O)(O)O)O2)c(=O)[nH]c1=O [dTTP, thymidine triphosphate]",
    "temperature shift (ΔTm)": "18.9 °C"
  }
]

// moving on: another record for temperature shift (ΔTm)
**Q:** // query temperature shift (ΔTm) value for entry O=c1ccn([C@@H]2O[C@H](CO[P@@](=O)(O)O[P@@](=O)(O)OP(=O)(O)O)[C@@H](O)[C@H]2O)c(=O)[nH]1 (stereo in doubt) [UTP, uridine triphosphate]
**A:** 15.3 °C

Provenance of the data: paper PMC12000319
